Provide the recorded GI50 for the entries that follow.
Tested on: NCI/ADR-RES
test_protocol: NCI tumour cell line growth inhibition, 48 h
Activity calls are given as the source filed them. No stated cut-off is given here; in the data, active = GI50 up to about 1.1 µM and inactive = higher.

Form entry - test system: NCI/ADR-RES; read-out: GI50; compound: CCN(CC)Cc1ccc(C(=S)Nc2ccc(Cl)cc2)s1
7.45 µM (inactive)

Form entry - test system: NCI/ADR-RES; read-out: GI50; compound: COc1cc2c(cc1OC)-c1[nH]c3ccc(C#N)cc3c1CC(=O)N2
> 100 µM (inactive)

Form entry - test system: NCI/ADR-RES; read-out: GI50; compound: C=CCNC(NCC=C)=C(C(Cl)=C(Cl)Cl)[N+](=O)[O-]
43.2 µM (inactive)

Form entry - test system: NCI/ADR-RES; read-out: GI50; compound: Clc1ccc(/N=C2\c3ccccc3CN2c2ccc(Cl)cc2)cc1
> 100 µM (inactive)

Form entry - test system: NCI/ADR-RES; read-out: GI50; compound: C=C[C@]1(C)CC[C@]2(C)C(CC[C@@]3(C)C2C[C@H](O)[C@H](O)[C@@]3(C)O)C1 (stereo not given in full)
> 100 µM (inactive)

Form entry - test system: NCI/ADR-RES; read-out: GI50; compound: O=C(/C=C/c1ccc2c(c1)OCO2)CC(=O)/C=C/c1ccc2c(c1)OCO2
69.3 µM (inactive)

Form entry - test system: NCI/ADR-RES; read-out: GI50; compound: O=c1[nH]cnc2c1sc1nc3ccccc3n12
> 100 µM (inactive)

Form entry - test system: NCI/ADR-RES; read-out: GI50; compound: COc1ccc(NCc2cnc3nc(N)nc(N)c3c2C)cc1
> 100 µM (inactive)

Form entry - test system: NCI/ADR-RES; read-out: GI50; compound: CC(NC(=O)C(NC(=O)C(NC(=O)C(F)(F)F)C(C)C)C(C)C)C(=O)Oc1c(Cl)c(Cl)c(Cl)c(Cl)c1Cl (stereo not given)
> 100 µM (inactive)

Form entry - test system: NCI/ADR-RES; read-out: GI50; compound: OC1(c2ccc(Cl)cc2)c2c(c3ccccc3c3ccccc23)C2=NCCN21 (stereo not given)
11.5 µM (inactive)

Cited source: ChEMBL document CHEMBL1201862
